- System: EZH2
- Measurement notes: 3' UTR reporter interaction score (median-centred robust z-score of log2 firefly/Renilla activity); higher = less repression of the 3' UTR reporter
- Cond: HEK293T; 48 h
Recorded endpoint: 3' UTR reporter interaction score
Would you mind answering with just the numeric figure?

Guide cases for 3' UTR reporter interaction score, answers given:
AUCCCUUGCAGGGGCUGUUGGGU ... 0.197
UUCAAGUAAUCCAGGAUAGGC ... -4.57
CAAAGUGCUUACAGUGCAGGUAGU ... -0.848

Exam item: Retrieve 3' UTR reporter interaction score on EZH2; query `AGGGUAAGCUGAACCUCUGAU`
Marked response: -0.149

----------
Entries annotated with measured 3' UTR reporter interaction score
- Tested on: RB1
- Measurement notes: 3' UTR reporter interaction score (median-centred robust z-score of log2 firefly/Renilla activity); higher = less repression of the 3' UTR reporter
- Cond: HEK293T; 48 h
Would you mind answering with just the numeric figure?

Guide cases for 3' UTR reporter interaction score, answers given:
AUGACCUAUGAAUUGACAGAC ... -3
AAACAAACAUGGUGCACUUCUUU ... 1.09

Shifting focus to the sequence that follows.
Exam item: Input `UAGCACCAUCUGAAAUCGGUU` , output reported 3' UTR reporter interaction score.
Marked response: -0.626

----------
- Tested on: PHF6
- Measurement notes: 3' UTR reporter interaction score (median-centred robust z-score of log2 firefly/Renilla activity); higher = less repression of the 3' UTR reporter
- Cond: HEK293T; 48 h
Recorded endpoint: 3' UTR reporter interaction score
Would you mind answering with just the numeric figure?

CCUCUAGAUGGAAGCACUGUCU ... 0.44
UGUUUGCAGAGGAAACUGAGAC ... -0.0326
CAGUGCAAUGUUAAAAGGGCAU ... 0.0914
UCUUGUGUUCUCUAGAUCAGU ... -1.56

Exam item: Input `UUCACAGGGAGGUGUCAUUUAU` , output reported 3' UTR reporter interaction score.
Marked response: -1.72

----------
- Test system: MYC
- Measurement notes: 3' UTR reporter interaction score (median-centred robust z-score of log2 firefly/Renilla activity); higher = less repression of the 3' UTR reporter
- Cond: HEK293T; 48 h
Recorded endpoint: 3' UTR reporter interaction score
Would you mind answering with just the numeric figure?

Guide cases for 3' UTR reporter interaction score, answers given:
GGCAAGAUGCUGGCAUAGCUG ... 0.017
UUAUGGUUUGCCUGGGACUGAG ... 0.675
CCACACCGUAUCUGACACUUU ... -1.37
UGUCUUGCAGGCCGUCAUGCA ... 0.266
UAGCAGCACAGAAAUAUUGGC ... -0.447

Exam item: Input `CAGCAGCAAUUCAUGUUUUGAA` , output reported 3' UTR reporter interaction score.
Marked response: -0.0621

Exam item: Input `GUGCCGCCAUCUUUUGAGUGU` , output reported 3' UTR reporter interaction score.
Marked response: 1.02

Exam item: Input `AUCGCUGCGGUUGCGAGCGCUGU` , output reported 3' UTR reporter interaction score.
Marked response: 0.0173

Exam item: Input `UGUAAACAUCCUACACUCUCAGC` , output reported 3' UTR reporter interaction score.
Marked response: -0.915

Exam item: Input `UAACACUGUCUGGUAAAGAUGG` , output reported 3' UTR reporter interaction score.
Marked response: 0.0647

Exam item: Input `UGGCAGUGUAUUGUUAGCUGGU` , output reported 3' UTR reporter interaction score.
Marked response: -2.6

Exam item: Input `ACUUACAGACAAGAGCCUUGCUC` , output reported 3' UTR reporter interaction score.
Marked response: 0.117

Exam item: Input `CAAAGAGGAAGGUCCCAUUAC` , output reported 3' UTR reporter interaction score.
Marked response: -0.255

Exam item: Input `UAGCUUAUCAGACUGAUGUUGA` , output reported 3' UTR reporter interaction score.
Marked response: -0.465

Exam item: Input `UGUAGUGUUUCCUACUUUAUGGA` , output reported 3' UTR reporter interaction score.
Marked response: 0.753

Exam item: Input `UGGAGGAGAAGGAAGGUGAUG` , output reported 3' UTR reporter interaction score.
Marked response: -2.42

Exam item: Input `AUCAUAGAGGAAAAUCCACGU` , output reported 3' UTR reporter interaction score.
Marked response: -0.578

Exam item: Input `AAUUGCACGGUAUCCAUCUGUA` , output reported 3' UTR reporter interaction score.
Marked response: 1.4

Exam item: Input `UCAGAACAAAUGCCGGUUCCCAGA` , output reported 3' UTR reporter interaction score.
Marked response: 0.178

Exam item: Input `UACUCAGGAGAGUGGCAAUCACA` , output reported 3' UTR reporter interaction score.
Marked response: 0.13

Exam item: Input `GUCAUACACGGCUCUCCUCUCU` , output reported 3' UTR reporter interaction score.
Marked response: 0.275
